Biological target: T1, recombinant human Nectin-4-His protein (human, UniProt Q96NY8 32-349)
T1 construct: Rescreening antigen and bought ELISA antigen are treated as one molecule; also called human Nectin-4-His tagged; Ag1; not shown: His tag
T1 sequence: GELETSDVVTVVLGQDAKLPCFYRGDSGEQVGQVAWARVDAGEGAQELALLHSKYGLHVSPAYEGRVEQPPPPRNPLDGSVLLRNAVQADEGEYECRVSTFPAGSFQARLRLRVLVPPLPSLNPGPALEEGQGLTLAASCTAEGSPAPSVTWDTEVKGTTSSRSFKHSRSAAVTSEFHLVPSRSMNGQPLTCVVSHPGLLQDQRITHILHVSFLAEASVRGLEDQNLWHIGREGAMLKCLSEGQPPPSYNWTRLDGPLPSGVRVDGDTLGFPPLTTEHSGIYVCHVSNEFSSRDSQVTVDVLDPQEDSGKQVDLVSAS
Experiment: ELISA, coated antigen
// boundary case: EC50 equal to 10 nM maps to NO; strictly smaller maps to YES

Example entries and their recorded answers appear below.
binder	label.value
Nectin-4 5D9 VH3/VL5 (antibody, V domains shown, Humanized; also called 5D9 VH variant 3 / 5D9 VL variant 5) VH: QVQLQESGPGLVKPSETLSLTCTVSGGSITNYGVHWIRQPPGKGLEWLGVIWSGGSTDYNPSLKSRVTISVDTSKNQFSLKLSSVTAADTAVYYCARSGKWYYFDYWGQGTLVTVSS VL: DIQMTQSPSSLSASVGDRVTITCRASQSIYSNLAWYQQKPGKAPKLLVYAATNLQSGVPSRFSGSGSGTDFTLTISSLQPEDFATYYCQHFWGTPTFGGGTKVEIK	YES
Nectin-4 5D9 VH5/VL4 (antibody, V domains shown, Humanized; also called 5D9 VH variant 5 / 5D9 VL variant 4) VH: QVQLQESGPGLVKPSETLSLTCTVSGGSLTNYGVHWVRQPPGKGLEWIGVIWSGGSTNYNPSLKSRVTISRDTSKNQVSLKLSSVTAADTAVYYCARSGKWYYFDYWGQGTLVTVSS VL: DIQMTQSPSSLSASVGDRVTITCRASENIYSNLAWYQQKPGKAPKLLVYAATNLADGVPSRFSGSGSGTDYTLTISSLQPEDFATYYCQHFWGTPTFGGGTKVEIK	NO
Nectin-4 5D9 VH1/VL2 (antibody, V domains shown, Humanized; also called 5D9 VH variant 1 / 5D9 VL variant 2) VH: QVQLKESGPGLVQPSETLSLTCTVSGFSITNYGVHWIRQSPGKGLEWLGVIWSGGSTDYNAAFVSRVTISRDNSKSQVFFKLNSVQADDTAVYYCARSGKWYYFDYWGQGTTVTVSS VL: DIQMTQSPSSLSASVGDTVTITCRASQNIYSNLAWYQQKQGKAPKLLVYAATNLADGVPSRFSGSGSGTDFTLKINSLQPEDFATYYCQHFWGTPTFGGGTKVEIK	YES

**Q:** Dear reviewer, please state whether Nectin-4 5D9 VH2/VL3 (antibody, V domains shown, Humanized; also called 5D9 VH variant 2 / 5D9 VL variant 3) VH: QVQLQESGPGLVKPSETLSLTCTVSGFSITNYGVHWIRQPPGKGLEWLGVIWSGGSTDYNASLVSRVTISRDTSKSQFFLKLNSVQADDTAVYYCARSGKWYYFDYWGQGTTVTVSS VL: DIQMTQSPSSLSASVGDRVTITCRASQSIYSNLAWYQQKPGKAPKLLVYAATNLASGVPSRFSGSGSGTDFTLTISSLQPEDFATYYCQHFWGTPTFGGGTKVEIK has EC50 strictly beneath 10 nM.
**A:** NO

**Q:** Dear reviewer, please state whether Nectin-4 5D9 VH2/VL5 (antibody, V domains shown, Humanized; also called 5D9 VH variant 2 / 5D9 VL variant 5) VH: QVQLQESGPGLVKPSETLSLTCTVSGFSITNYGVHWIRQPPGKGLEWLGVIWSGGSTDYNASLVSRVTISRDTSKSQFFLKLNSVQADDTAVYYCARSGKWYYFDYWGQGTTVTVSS VL: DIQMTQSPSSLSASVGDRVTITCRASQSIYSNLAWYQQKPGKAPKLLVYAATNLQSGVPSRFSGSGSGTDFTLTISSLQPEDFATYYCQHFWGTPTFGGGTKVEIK has EC50 strictly beneath 10 nM.
**A:** NO
